- Test system: human ovarian cancer SK-OV-3
- conditions: D4; 24 mg/kg, D0-4 IV; nude mice
Please provide measured Body weight change (%) D4 for the entries that follow.
One number for each entry, in %.

So what's the measured Body weight change (%) D4 for this one? CC(=O)OC1C(=O)C2(C)C(O)CC3OCC3(OC(C)=O)C2C(OC(=O)c2ccccc2)C2(O)CC(OC(=O)C(OC(=O)C(F)CC(C)N(C)C)C(NC(=O)c3ccccc3)c3ccccc3)C(C)=C1C2(C)C.O=C(O)C=CC(=O)O (centres unmarked)
−9.4

What do you have for CC(=O)OC1C(=O)C2(C)C(O)CC3OCC3(OC(C)=O)C2C(OC(=O)c2ccccc2)C2(O)CC(OC(=O)C(OC(=O)C(CCN(C)C)C(F)(F)F)C(NC(=O)c3ccccc3)c3ccccc3)C(C)=C1C2(C)C.Cc1ccc(S(=O)(=O)O)cc1 (centres unmarked) ?
−8.9

What do you have for CCN(CC)CC[C@H](F)C(=O)O[C@@H](C(=O)O[C@H]1C[C@@]2(O)[C@@H](OC(=O)c3ccccc3)[C@@H]3[C@]4(OC(C)=O)CO[C@@H]4C[C@H](O)[C@@]3(C)C(=O)[C@H](OC(C)=O)C(=C1C)C2(C)C)[C@@H](NC(=O)c1ccccc1)c1ccccc1.O=C(O)/C=C/C(=O)O ?
−8.1

Parameter requested: Body weight change (%) D4. Apply to each item below.
1. CC(=O)O[C@H]1C(=O)[C@@]2(C)[C@H]([C@H](OC(=O)c3ccccc3)[C@]3(O)C[C@H](OC(=O)[C@H](OC(=O)[C@H](F)CCN(C)C)[C@@H](NC(=O)c4ccccc4)c4ccccc4)C(C)=C1C3(C)C)[C@]1(OC(C)=O)CO[C@@H]1C[C@@H]2O.CS(=O)(=O)O
2. CC(=O)O[C@H]1C(=O)[C@@]2(C)[C@H]([C@H](OC(=O)c3ccccc3)[C@]3(O)C[C@H](OC(=O)[C@H](OC(=O)C(F)CCN(C)C)[C@@H](NC(=O)c4ccccc4)c4ccccc4)C(C)=C1C3(C)C)[C@]1(OC(C)=O)CO[C@@H]1C[C@@H]2O.CS(=O)(=O)O (some centres unmarked)

−5.9
−6.0

* * *

Please provide measured Sampling time/Dissociation percent (%) 2 min for the entries that follow.
- assay.protocol: In vitro dissociation in blood plasma of rabbit
- Assay type: in vitro ADME, New Zealand white rabbits
- conditions: fresh New Zealand white rabbit plasma, 37° C., 2 min
Be sure to follow the number with its unit.

Solved entries (count: 3):
So what's the measured Sampling time/Dissociation percent (%) 2 min for this one? CCN(C)C(C)C[C@H](C(=O)O[C@@H](C(=O)O[C@H]1C[C@@]2(O)[C@@H](OC(=O)c3ccccc3)[C@@H]3[C@]4(OC(C)=O)CO[C@@H]4C[C@H](O)[C@@]3(C)C(=O)[C@H](O)C(=C1C)C2(C)C)[C@@H](NC(=O)OC(C)(C)C)c1ccccc1)C(C)(F)F.CS(=O)(=O)O (stereo partly shown)
44.6%

What do you have for CC(=O)O[C@H]1C(=O)[C@@]2(C)[C@H]([C@H](OC(=O)c3ccccc3)[C@]3(O)C[C@H](OC(=O)[C@H](OC(=O)C(F)CCN(C)C)[C@@H](NC(=O)c4ccccc4)c4ccccc4)C(C)=C1C3(C)C)[C@]1(OC(C)=O)CO[C@@H]1C[C@@H]2O.Cl (stereo partly shown) ?
75.7%

What do you have for CC(=O)O[C@H]1C(=O)[C@@]2(C)[C@H]([C@H](OC(=O)c3ccccc3)[C@]3(O)C[C@H](OC(=O)[C@H](OC(=O)[C@H](F)CCN(C)C)[C@@H](NC(=O)c4ccccc4)c4ccccc4)C(C)=C1C3(C)C)[C@]1(OC(C)=O)CO[C@@H]1C[C@@H]2O.Cl ?
76.5%

Continuing:
So what's the measured Sampling time/Dissociation percent (%) 2 min for this one? CC(=O)O[C@H]1C(=O)[C@@]2(C)[C@H]([C@H](OC(=O)c3ccccc3)[C@]3(O)C[C@H](OC(=O)[C@H](OC(=O)C(F)CCN(C)C)[C@@H](NC(=O)c4ccccc4)c4ccccc4)C(C)=C1C3(C)C)[C@]1(OC(C)=O)CO[C@@H]1C[C@@H]2O.CS(=O)(=O)O (stereo partly shown)
76.5%
